Target: Matrix metalloproteinase-9 (Homo sapiens, UniProt P14780)
Sequence (P14780 whole entry): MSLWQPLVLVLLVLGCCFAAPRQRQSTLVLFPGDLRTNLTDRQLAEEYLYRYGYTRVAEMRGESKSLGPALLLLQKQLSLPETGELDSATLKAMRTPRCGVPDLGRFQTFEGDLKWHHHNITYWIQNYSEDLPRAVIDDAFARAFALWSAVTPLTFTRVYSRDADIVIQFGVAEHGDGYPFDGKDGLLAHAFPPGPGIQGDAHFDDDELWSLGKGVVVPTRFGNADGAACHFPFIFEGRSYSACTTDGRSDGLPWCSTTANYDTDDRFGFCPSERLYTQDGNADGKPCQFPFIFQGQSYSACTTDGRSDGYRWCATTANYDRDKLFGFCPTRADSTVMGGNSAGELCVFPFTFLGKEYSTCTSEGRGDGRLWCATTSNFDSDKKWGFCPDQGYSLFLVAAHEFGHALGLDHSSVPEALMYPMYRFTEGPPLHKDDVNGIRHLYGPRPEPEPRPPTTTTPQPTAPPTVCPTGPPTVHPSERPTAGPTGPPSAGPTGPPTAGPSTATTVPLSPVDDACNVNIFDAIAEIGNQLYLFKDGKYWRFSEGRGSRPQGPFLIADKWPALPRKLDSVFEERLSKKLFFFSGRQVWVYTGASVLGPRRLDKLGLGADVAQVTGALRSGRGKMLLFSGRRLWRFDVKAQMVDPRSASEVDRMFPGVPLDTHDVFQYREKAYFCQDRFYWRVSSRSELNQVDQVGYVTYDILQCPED
Parameter IC50: see the listing below.
readout.kind: IC50 (nM)

- COc1ccc(S(=O)(=O)N(Cc2ccc(N3CCN(C)CC3)cc2)c2c(C)cccc2C(=O)NO)cc1: 7
- COc1ccc(S(=O)(=O)N(Cc2ccc(OCCN3CCCCC3)cc2)c2c(C)cc(Br)cc2C(=O)NO)cc1: 2
- COc1ccc(S(=O)(=O)N(C)c2c(CN3CCN(C)CC3)cc(-c3ccc4ccccc4c3)cc2C(=O)NO)cc1: 2
- CN1CCN(Cc2cc(Br)cc(C(=O)NO)c2N(C)S(=O)(=O)c2ccc(Oc3ccc(Cl)cc3)cc2)CC1: 0.5
- CN1CCN(Cc2cccc(C(=O)NO)c2N(C)S(=O)(=O)c2ccc(Oc3ccc(Cl)cc3)cc2)CC1: 1
- COc1ccc(S(=O)(=O)N(CC#CCN2CCN(C)CC2)c2c(C)cc(Br)cc2C(=O)NO)cc1: 10
- COC(=O)C1CCCN1Cc1cccc(C(=O)NO)c1N(C)S(=O)(=O)c1ccc(OC)cc1 (centres undefined): 5
- COc1ccc(S(=O)(=O)N(C)c2c(CN3CCN(c4ccccc4)CC3)cc(Br)cc2C(=O)NO)cc1: 3
- COc1ccc(S(=O)(=O)N(Cc2ccc(OCCN3CCCCC3)cc2)c2c(C)cccc2C(=O)NO)cc1: 7

---

Biological target: Disintegrin and metalloproteinase domain-containing protein 17 (Homo sapiens, UniProt P78536)
Sequence (P78536 whole entry, the tested form may be a part): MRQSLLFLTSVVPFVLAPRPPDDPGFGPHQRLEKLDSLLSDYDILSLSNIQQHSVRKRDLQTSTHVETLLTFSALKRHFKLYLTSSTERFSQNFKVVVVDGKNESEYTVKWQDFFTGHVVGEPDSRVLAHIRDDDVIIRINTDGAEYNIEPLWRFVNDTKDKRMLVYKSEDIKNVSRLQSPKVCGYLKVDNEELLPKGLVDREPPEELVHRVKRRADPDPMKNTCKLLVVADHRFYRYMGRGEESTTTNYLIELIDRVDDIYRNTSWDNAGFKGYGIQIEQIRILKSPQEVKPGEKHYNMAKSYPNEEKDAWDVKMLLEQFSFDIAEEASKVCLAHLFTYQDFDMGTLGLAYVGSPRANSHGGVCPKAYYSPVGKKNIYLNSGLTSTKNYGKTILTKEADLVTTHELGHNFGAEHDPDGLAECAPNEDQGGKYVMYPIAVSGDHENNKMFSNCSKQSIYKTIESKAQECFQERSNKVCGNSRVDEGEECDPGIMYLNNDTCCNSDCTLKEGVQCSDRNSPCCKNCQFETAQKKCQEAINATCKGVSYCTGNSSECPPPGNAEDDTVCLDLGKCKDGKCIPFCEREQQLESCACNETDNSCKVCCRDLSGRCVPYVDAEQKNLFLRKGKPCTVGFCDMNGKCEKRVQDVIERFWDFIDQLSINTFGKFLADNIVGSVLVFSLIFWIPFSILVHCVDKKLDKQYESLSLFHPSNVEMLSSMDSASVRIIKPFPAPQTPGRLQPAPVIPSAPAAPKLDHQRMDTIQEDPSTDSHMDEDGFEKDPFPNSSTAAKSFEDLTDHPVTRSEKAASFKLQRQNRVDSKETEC
Test: In vitro inhibition of TNF-alpha converting enzyme.
readout.kind: IC50 (nM)

- CCN(CC)CC#CCN(c1c(C)cc(Br)cc1C(=O)NO)S(=O)(=O)c1ccc(OC)cc1: 36
- COC(=O)C1CCCN1Cc1cccc(C(=O)NO)c1N(C)S(=O)(=O)c1ccc(OC)cc1 (centres undefined): 200
- COc1ccc(S(=O)(=O)N(C)c2c(CN3CCN(C(=O)OC(C)(C)C)CC3)cc(Br)cc2C(=O)NO)cc1: 63
- COc1ccc(S(=O)(=O)N(C)c2c(CN3CCN(c4ccccc4)CC3)cc(Br)cc2C(=O)NO)cc1: 87

---

Target: Interstitial collagenase (Homo sapiens)
Sequence (P03956 whole entry): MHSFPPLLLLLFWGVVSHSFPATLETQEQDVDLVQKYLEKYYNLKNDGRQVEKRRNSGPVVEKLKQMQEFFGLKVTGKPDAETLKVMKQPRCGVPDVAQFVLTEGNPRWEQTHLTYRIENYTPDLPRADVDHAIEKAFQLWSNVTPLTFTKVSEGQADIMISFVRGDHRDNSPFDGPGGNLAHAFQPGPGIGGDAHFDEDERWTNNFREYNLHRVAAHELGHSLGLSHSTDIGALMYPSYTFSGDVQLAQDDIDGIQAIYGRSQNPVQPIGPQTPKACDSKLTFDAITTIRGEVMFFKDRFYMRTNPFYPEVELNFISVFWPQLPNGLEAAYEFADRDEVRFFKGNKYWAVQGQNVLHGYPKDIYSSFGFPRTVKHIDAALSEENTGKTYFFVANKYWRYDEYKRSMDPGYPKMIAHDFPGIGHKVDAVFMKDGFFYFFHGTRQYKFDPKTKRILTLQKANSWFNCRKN
Test: In vitro inhibition of Matrix metalloprotease-1.
readout.kind: IC50 (nM)

• COc1ccc(S(=O)(=O)N(C)c2c(CN3CCN(C)CC3)cc(Br)cc2C(=O)NO)cc1 = 194
• COc1ccc(S(=O)(=O)N(C)c2c(CN3CCN(C(=O)OC(C)(C)C)CC3)cc(Br)cc2C(=O)NO)cc1 = 674
• CCN(CC)CC#CCN(c1c(C)cc(Br)cc1C(=O)NO)S(=O)(=O)c1ccc(OC)cc1 = 150
• CN1CCN(Cc2cccc(C(=O)NO)c2N(C)S(=O)(=O)c2ccc(Oc3ccc(Cl)cc3)cc2)CC1 = 155

---

Target: Collagenase 3 (Homo sapiens)
Experiment: In vitro inhibition of Matrix metalloprotease-13.
Parameter IC50: see the listing below.
readout.kind: IC50 (nM)

* COC(=O)C1CCCN1Cc1cccc(C(=O)NO)c1N(C)S(=O)(=O)c1ccc(OC)cc1 (centres undefined) | 6
* COc1ccc(S(=O)(=O)N(CC#CCN2CCN(C)CC2)c2c(C)cc(Br)cc2C(=O)NO)cc1 | 6
* CCN(CC)CC#CCN(c1c(C)cc(Br)cc1C(=O)NO)S(=O)(=O)c1ccc(OC)cc1 | 7
* COc1ccc(S(=O)(=O)N(C)c2c(CN3CCN(C(=O)OC(C)(C)C)CC3)cc(Br)cc2C(=O)NO)cc1 | 6

Data origin: ChEMBL document CHEMBL1133846
